- tested.on: 3-hydroxyacyl-CoA dehydrogenase type-2 (Homo sapiens) (UniProt Q99714)
- experimental.protocol: qHTS Assay for Inhibitors of HSD17B4, hydroxysteroid (17-beta) dehydrogenase 4
- applied.conditions: recombinant HSD17B10, NADH fluorescence kinetic; series mostly up to 57.1 µM
- Description: Assay Overview: NIH Molecular Libraries Screening Centers Network [MLSCN] NIH Chemical Genomics Center [NCGC] Structural Genomics Consortium [SGC] […] An increase in the fluorescence intensity due to conversion of NAD+ to NADH was used to measure the enzyme activity. Assay Protocol: Buffer: 100 mM Tris-HCl pH 9.0, containing 0.01 % Tween-20. […] The fluorescence intensity difference between the last and the first time points was used to compute reaction progress.
In all, about 75,000 compounds went through this assay and about 5,700 (7.6%) were called active. Another 7% or so got no clear call; they are omitted. Calls come from the whole dose curve; as a rule, active = well fitted inhibition curve with a large enough effect; inconclusive = small, poorly fitted or top-dose-only effect; inactive = no such curve, though single readings can be large or run the other way. The sample holds actives, similar compounds and a random draw of the others, so the mix is not that of the screen.
Select the correct class. Options are Y = active, N = inactive and nothing else.

Example cases with answers are listed next.
CCc1c(O)nc(SCC(=O)N2CCCCC2)n(-c2ccccc2C)c1=O; N
CN(C)/C=C1/Nc2ccccc2C1=O; N
Cc1nc2ccc(S(=O)(=O)NC(C(=O)N3CCCCCC3)C(C)C)cc2s1 (centres undefined); N

Query block: What did this assay record as the result for `Cn1c(=O)n(C)c2cc(CNc3ccc(N4CCOCC4)c(C(=O)O)c3)ccc21` ?
Result block: Y

Query block: What did this assay record as the result for `CC1(C)CC(=O)C(C=NCc2cccnc2)=C(O)C1` ?
Result block: N

Query block: What did this assay record as the result for `Cc1cccn2c(=O)c3cc(C(=O)N4COCC4(C)C)n(C)c3nc12` ?
Result block: Y

Query block: What did this assay record as the result for `Cn1c(CN2CCOCC2)nc2cc(NC(=O)c3ccc(Cl)cc3)ccc21` ?
Result block: N

----------
- tested.on: 3-hydroxyacyl-CoA dehydrogenase type-2 (Homo sapiens) (UniProt Q99714)
- experimental.protocol: qHTS Assay for Inhibitors of HSD17B4, hydroxysteroid (17-beta) dehydrogenase 4
- applied.conditions: recombinant HSD17B10, NADH fluorescence kinetic; series mostly up to 57.1 µM
The campaign covered roughly 75,000 compounds. About 5,700 (7.6%) were called active. Not shown: some 7% with an inconclusive outcome. The call rests on the fitted dose curve; in most records, active means well fitted inhibition curve with a large enough effect; inconclusive means small, poorly fitted or top-dose-only effect; inactive means no such curve, though single readings can be large or run the other way. Only a selection was taken, and actives are over-represented in it overall.
Select the correct class. Options are active, inactive and nothing else.

Example cases with answers are listed next.
N#Cc1nc(COc2ccc(Cl)cc2)oc1N1CCCC1; inactive
CCOC(=O)Cc1c(C)nc2c(C#N)c(C)nn2c1C; active
COc1ccccc1CNc1ccnc(-c2c(C)noc2C)n1; inactive
CCOC(=O)CSc1nccc(N(C)C)c1C#N; inactive
CNc1nc(-c2ccccc2OC)nc2ccccc12; inactive
Cc1ccc(OCc2nc(C#N)c(N3CCCC3)o2)cc1; inactive

// next entry
Query block: What did this assay record as the result for `O=C1C(c2[nH]c3ccccc3c2O)=Nc2ccccc21` ?
Result block: active

----------
- tested.on: 3-hydroxyacyl-CoA dehydrogenase type-2 (Homo sapiens)
- experimental.protocol: qHTS Assay for Inhibitors of HSD17B4, hydroxysteroid (17-beta) dehydrogenase 4;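 note: the protocol describes HADH2 (HSD17B10) and not the HSD17B4 of the title; nearly all actives have a fitted effect of over 70% in size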
- applied.conditions: recombinant HSD17B10, NADH fluorescence kinetic; series mostly up to 57.1 µM
The whole screen tested about 75,000 compounds, of which about 5,700 (7.6%) were called active. About 7% were inconclusive and are not listed. Calls follow the shape of the dose curve; as a rule, active = well fitted inhibition curve with a large enough effect; inconclusive = small, poorly fitted or top-dose-only effect; inactive = no such curve, though single readings can be large or run the other way. The sample holds actives, similar compounds and a random draw of the others, so the mix is not that of the screen.
Select the correct class. Options are TRUE for active, FALSE for inactive and nothing else.

Query block: What did this assay record as the result for `COc1ccccc1N1CCN(CCN2C(=O)c3ccccc3C(C)(C)C2=O)CC1` ?
Result block: FALSE

Query block: What did this assay record as the result for `O=C1c2ccccc2C(=O)N1CCc1nn[nH]n1` ?
Result block: FALSE

Query block: What did this assay record as the result for `C=C(C)Cn1c(N2CCN(CC)CC2)nc2c1c(=O)[nH]c(=O)n2C` ?
Result block: FALSE

Query block: What did this assay record as the result for O=C(Nc1ccc2c(c1)OCCO2)C1CCCN(c2ncccn2)C1 (stereo unspecified) ?
Result block: FALSE

Query block: What did this assay record as the result for `Cc1nnc(SCC(=O)NCc2ccccc2)s1` ?
Result block: FALSE

Query block: What did this assay record as the result for COCCNC(=O)C(c1ccc(C)o1)N(Cc1ccccc1)C(=O)Cn1nnc2ccccc21 (stereo unspecified) ?
Result block: FALSE

Query block: What did this assay record as the result for O=C(NC1CCCCC1)c1ccc2c(=O)n(CC3CCCO3)c(=O)[nH]c2c1 (stereo unspecified) ?
Result block: TRUE

Query block: What did this assay record as the result for `CN(C)c1cc2c(Nc3ccc4c(cnn4Cc4ccccc4)c3)ncnc2cn1` ?
Result block: FALSE

Query block: What did this assay record as the result for Cc1ccnc(N2CCCC(C(=O)Nc3cc(F)ccc3C)C2)n1 (stereo unspecified) ?
Result block: TRUE

Query block: What did this assay record as the result for `c1coc(-c2nc3nc4ccccc4n3nc2-c2ccco2)c1` ?
Result block: FALSE

Query block: What did this assay record as the result for CCOC(=O)C1CCCN(C(=O)CN(c2ccc(OC)cc2)S(=O)(=O)c2c(C)noc2C)C1 (stereo unspecified) ?
Result block: FALSE

----------
- tested.on: 3-hydroxyacyl-CoA dehydrogenase type-2 (Homo sapiens)
- experimental.protocol: qHTS Assay for Inhibitors of HSD17B4, hydroxysteroid (17-beta) dehydrogenase 4;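 note: the protocol describes HADH2 (HSD17B10) and not the HSD17B4 of the title; nearly all actives have a fitted effect of over 70% in size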
- applied.conditions: recombinant HSD17B10, NADH fluorescence kinetic; series mostly up to 57.1 µM
The whole screen tested about 75,000 compounds, of which about 5,700 (7.6%) were called active. Another 7% or so got no clear call; they are omitted. The call rests on the fitted dose curve; in most records, active means well fitted inhibition curve with a large enough effect; inconclusive means small, poorly fitted or top-dose-only effect; inactive means no such curve, though single readings can be large or run the other way. For the sample, actives were picked, then their nearest neighbours and some compounds at random.
Select the correct class. Options are class 1 for active, class 0 for inactive and nothing else.

COc1c(C(C)C)oc2cc3oc(=O)ccc3cc12; class 0
CCCn1c(=NC(C)=O)c(C(=O)OCC)cc2c(=O)n3ccccc3nc21; class 1
COc1ccc(C2C(C(=O)Nc3ccccc3OC)=C(C)Nc3nnnn32)c(OC)c1 (stereo unspecified); class 0
COCCNCCOCCOc1cccc(OC)c1; class 0
CCOC(=O)c1cc2n(c1N)-c1ccccc1C2=O; class 0

Query block: What did this assay record as the result for CN1C(=O)c2ccccc2C(C(=O)NCCCN2CCCC2)C1c1c[nH]c2ccccc12 (stereo unspecified) ?
Result block: class 0

Query block: What did this assay record as the result for `Cn1c(=NC(=O)CSCC(=O)N2CCCCC2)sc2ccccc21` ?
Result block: class 0

----------
- tested.on: 3-hydroxyacyl-CoA dehydrogenase type-2 (Homo sapiens) (UniProt Q99714)
- experimental.protocol: qHTS Assay for Inhibitors of HSD17B4, hydroxysteroid (17-beta) dehydrogenase 4;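 note: the protocol describes HADH2 (HSD17B10) and not the HSD17B4 of the title; nearly all actives have a fitted effect of over 70% in size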
- applied.conditions: recombinant HSD17B10, NADH fluorescence kinetic; series mostly up to 57.1 µM
Out of some 75,000 compounds screened, about 5,700 (7.6%) were called active. Roughly 7% stayed inconclusive and do not appear here. Calls follow the shape of the dose curve; as a rule, active = well fitted inhibition curve with a large enough effect; inconclusive = small, poorly fitted or top-dose-only effect; inactive = no such curve, though single readings can be large or run the other way. The sample holds actives, similar compounds and a random draw of the others, so the mix is not that of the screen.
Select the correct class. Options are Yes = active, No = inactive and nothing else.

Example cases with answers are listed next.
COc1cccc(N2CCN(C3CC(=O)N(c4ccc(Cl)cc4)C3=O)CC2)c1 (configuration not stated); No
CC(Nc1nc(N2CCCC2)nc2ccccc12)c1ccccc1 (configuration not stated); Yes
O=C(CSC1=Nc2ccccc2C2=NC(c3ccccc3)C(=O)N12)NCC1CCCO1 (configuration not stated); Yes
O=C(CC1Nc2ccccc2NC1=O)Nc1ccccc1 (configuration not stated); Yes
CC(C)n1c(C(O)c2ccccc2)nc2ccccc21 (configuration not stated); No
Cc1cc(NS(=O)(=O)c2ccccc2)no1; No
O=C(CC1NCCNC1=O)Nc1ccc(Oc2ccccc2)cc1 (configuration not stated); No
O=C(C1CCN(S(=O)(=O)Cc2ccccc2)CC1)N1CCCc2ccccc21; No

Query block: What did this assay record as the result for Cc1ccc(C(CC(=O)O)Nc2nc(N3CCCCC3)nc(N3CCCCC3)n2)cc1 (configuration not stated) ?
Result block: No

Query block: What did this assay record as the result for CCOC(=O)c1ccccc1NC(=O)CC1Nc2ccccc2NC1=O (configuration not stated) ?
Result block: No

Query block: What did this assay record as the result for Cc1ccc2cc(C#N)c(SCC(=O)NCC3CCCO3)nc2c1C (configuration not stated) ?
Result block: No

Query block: What did this assay record as the result for `COc1ccc(-c2nnco2)cc1OC` ?
Result block: No

----------
- tested.on: 3-hydroxyacyl-CoA dehydrogenase type-2 (Homo sapiens) (UniProt Q99714)
- experimental.protocol: qHTS Assay for Inhibitors of HSD17B4, hydroxysteroid (17-beta) dehydrogenase 4;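 note: the protocol describes HADH2 (HSD17B10) and not the HSD17B4 of the title; nearly all actives have a fitted effect of over 70% in size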
- applied.conditions: recombinant HSD17B10, NADH fluorescence kinetic; series mostly up to 57.1 µM
Hit rate of the full screen: of about 75,000 compounds, about 5,700 (7.6%) were called active. Another 7% or so got no clear call; they are omitted. Calls follow the shape of the dose curve; as a rule, active = well fitted inhibition curve with a large enough effect; inconclusive = small, poorly fitted or top-dose-only effect; inactive = no such curve, though single readings can be large or run the other way. This is one part of a sample in which actives are shown more often than they occur.
Select the correct class. Options are active, inactive and nothing else.

Example cases with answers are listed next.
CC(C)(C)c1nc(NCC2CCCO2)c2nnn(Cc3ccccc3)c2n1 (stereo not given); inactive
Cn1c(=O)n(C)c2cc(C(=O)Nc3ccc4c(c3)OCO4)ccc21; inactive
CN(C)C(=O)/N=N\C(=O)N(C)C; inactive
CCOC(=O)N1CCN(Cc2nc3c(c(=O)n(C)c(=O)n3C)n2Cc2ccccc2)CC1; inactive

Query block: What did this assay record as the result for `CN1C(=O)c2ccc(NC(=O)c3c(F)c(F)c(F)c(F)c3F)cc2C1=O` ?
Result block: active

Query block: What did this assay record as the result for `C#CCNc1nc(C(C)C)nc2c1nnn2Cc1ccccc1F` ?
Result block: inactive

Query block: What did this assay record as the result for `CCN1CCN(Cc2nc3c(c(=O)n(C)c(=O)n3C)n2CC(=O)c2ccccc2)CC1` ?
Result block: active

Query block: What did this assay record as the result for CCn1c(SCC(=O)NCC2CCCO2)nc2cc(S(=O)(=O)N3CCCCC3)ccc21 (stereo not given) ?
Result block: inactive

Query block: What did this assay record as the result for CCCCn1c(SCC(=O)NCC2CCCO2)nc2ccc(N3CCOCC3)cc2c1=O (stereo not given) ?
Result block: active

Query block: What did this assay record as the result for `CCc1ccc(NC(=O)CSc2nc3ccccc3c(=O)n2CCN2CCOCC2)cc1` ?
Result block: inactive
